Assay: total protein half-life in vivo (active degradation + dilution); higher = more stable protein
Settings: wild type E. coli NCM3722; growth: P-lim chemostat; doubling time 6 h
In this section we review reported total protein half-life in vivo values for a set of sequences.
experimental-readout: total protein half-life in vivo (h)

sequence_record="MPKFRVSLFSLALMLAVPFAPQAVAKTAAATTASQPEIASGSAMIVDLNTNKVIYSNHPDLVRPIASISKLMTAMVVLDARLPLDEKLKVDISQTPEMKGVYSRVRLNSEISRKDMLLLALMSSENRAAASLAHHYPGGYKAFIKAMNAKAKSLGMNNTRFVEPTGLSVHNVSTARDLTKLLIASKQYPLIGQLSTTREDMATFSNPTYTLPFRNTNHLVYRDNWNIQLTKTGFTNAAGHCLVMRTVINNKPVALVVMDAFGKYTHFADASRLRTWIETGKVMPVPAAALSYKKQKAAQMAAAGQTAQND [P0AFI5]" experimental_readout="total protein half-life in vivo" endpoint_value=3.78
sequence_record="MSLPHCPKCNSEYTYEDNGMYICPECAYEWNDAEPAQESDELIVKDANGNLLADGDSVTIIKDLKVKGSSSMLKIGTKVKNIRLVEGDHNIDCKIDGFGPMKLKSEFVKKN [P0AFJ1]" experimental_readout="total protein half-life in vivo" endpoint_value=5.38
sequence_record="MARARGRGRRDLKSEINIVPLLDVLLVLLLIFMATAPIITQSVEVDLPDATESQAVSSNDNPPVIVEVSGIGQYTVVVEKDRLERLPPEQVVAEVSSRFKANPKTVFLIGGAKDVPYDEIIKALNLLHSAGVKSVGLMTQPI [P0ABV6]" experimental_readout="total protein half-life in vivo" endpoint_value=5.45
sequence_record=MEYQLTLNWPDFLERHWQKRPVVLKRGFNNFIDPISPDELAGLAMESEVDSRLVSHQDGKWQVSHGPFESYDHLGETNWSLLVQAVNHWHEPTAALMRPFRELPDWRIDDLMISFSVPGGGVGPHLDQYDVFIIQGTGRRRWRVGEKLQMKQHCPHPDLLQVDPFEAIIDEELEPGDILYIPPGFPHEGYALENAMNYSVGFRAPNTRELISGFADYVLQRELGGNYYSDPDVPPRAHPADVLPQEMDKLREMMLELINQPEHFKQWFGEFISQSRHELDIAPPEPPYQPDEIYDALKQGEVLVRLGGLRVLRIGDDVYANGEKIDSPHRPALDALASNIALTAENFGDALEDPSFLAMLAALVNSGYWFFEG experimental_readout="total protein half-life in vivo" endpoint_value=6.71

---

In this section we review reported total protein half-life in vivo values for a set of sequences.
Experiment: total protein half-life in vivo (active degradation + dilution); higher = more stable protein
Details: wild type E. coli NCM3722; growth: N-lim chemostat; doubling time 6 h
experimental-readout: total protein half-life in vivo (h)

sequence_record="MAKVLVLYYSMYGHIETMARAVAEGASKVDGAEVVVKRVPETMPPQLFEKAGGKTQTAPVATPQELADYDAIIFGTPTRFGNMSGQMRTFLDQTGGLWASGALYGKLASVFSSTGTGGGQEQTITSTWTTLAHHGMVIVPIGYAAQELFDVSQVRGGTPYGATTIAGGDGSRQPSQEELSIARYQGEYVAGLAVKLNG [P0A8G6]" quantity_unit=h endpoint_value=5.31
sequence_record="MKRYTPDFPEMMRLCEMNFSQLRRLLPRNDAPGETVSYQVANAQYRLTIVESTRYTTLVTIEQTAPAISYWSLPSMTVRLYHDAMVAEVCSSQQIFRFKARYDYPNKKLHQRDEKHQINQFLADWLRYCLAHGAMAIPVY [P0ADU7]" quantity_unit=h endpoint_value=2.03
sequence_record="MKAARQQAIVDLLLNHTSLTTEALSEQLKVSKETIRRDLNELQTQGKILRNHGRAKYIHRQNQDSGDPFHIRLKSHYAHKADIAREALAWIEEGMVIALDASSTCWYLARQLPDINIQVFTNSHPICHELGKRERIQLISSGGTLERKYGCYVNPSLISQLKSLEIDLFIFSCEGIDSSGALWDSNAINADYKSMLLKRAAQSLLLIDKSKFNRSGEARIGHLDEVTHIISDERQVATSLVTA [P0ACK8]" quantity_unit=h endpoint_value=1.3
sequence_record=MIFLMTKDSFLLQGFWQLKDNHEMIKINSLSEIKKVGNKPFKVIIDTYHNHILDEEAIKFLEKLDAERIIVLAPYHISKLKAKAPIYFVSRKESIKNLLEITYGKHLPHKNSQLCFSHNQFKIMQLILKNKNESNITSTLNISQQTLKIQKFNIMYKLKLRRMSDIVTLGITSYF quantity_unit=h endpoint_value=2.29

---

Test: total protein half-life in vivo (active degradation + dilution); higher = more stable protein
Conditions: wild type E. coli NCM3722; growth: C-lim chemostat; doubling time 3 h
In this section we review reported total protein half-life in vivo values for a set of sequences.
experimental-readout: total protein half-life in vivo

sequence_record=MKQTVYIASPESQQIHVWNLNHEGALTLTQVVDVPGQVQPMVVSPDKRYLYVGVRPEFRVLAYRIAPDDGALTFAAESALPGSPTHISTDHQGQFVFVGSYNAGNVSVTRLEDGLPVGVVDVVEGLDGCHSANISPDNRTLWVPALKQDRICLFTVSDDGHLVAQDPAEVTTVEGAGPRHMVFHPNEQYAYCVNELNSSVDVWELKDPHGNIECVQTLDMMPENFSDTRWAADIHITPDGRHLYACDRTASLITVFSVSEDGSVLSKEGFQPTETQPRGFNVDHSGKYLIAAGQKSHHISVYEIVGEQGLLHEKGRYAVGQGPMWVVVNAH endpoint_value="3.17 h"
sequence_record="MTTQTVSGRRYFTKAWLMEQKSLIALLVLIAIVSTLSPNFFTINNLFNILQQTSVNAIMAVGMTLVILTSGIDLSVGSLLALTGAVAASIVGIEVNALVAVAAALALGAAIGAVTGVIVAKGRVQAFIATLVMMLLLRGVTMVYTNGSPVNTGFTENADLFGWFGIGRPLGVPTPVWIMGIVFLAAWYMLHHTRLGRYIYALGGNEAATRLSGINVNKIKIIVYSLCGLLASLAGIIEVARLSSAQPTAGTGYELDAIAAVVLGGTSLAGGKGRIVGTLIGALILGFLNNGLNLLGVSSYYQMIVKAVVILLAVLVDNKKQ [P0AGI1]" endpoint_value="2.96 h"
sequence_record=MSEGWNIAVLGATGAVGEALLETLAERQFPVGEIYALARNESAGEQLRFGGKTITVQDAAEFDWTQAQLAFFVAGKEATAAWVEEATNSGCLVIDSSGLFALEPDVPLVVPEVNPFVLTDYRNRNVIAVPDSLTSQLLAALKPLIDQGGLSRISVTSLISASAQGKKAVDALAGQSAKLLNGIPIDEEDFFGRQLAFNMLPLLPDSEGSVREERRIVDEVRKILQDEGLMISASVVQAPVFYGHAQMVNFEALRPLAAEEARDAFVQGEDIVLSEENEFPTQVGDASGTPHLSVGCVRNDYGMPEQVQFWSVADNVRFGGALMAVKIAEKLVQEYLY endpoint_value="3.02 h"
sequence_record=MNLDDKSLFLDAMEDVQPLKRATDVHWHPTRNQRAPQRIDTLQLDNFLTTGFLDIIPLSQPLEFRREGLQHGVLDKLRSGKYPQQASLNLLRQPVEECRKMVFSFIQQALADGLRNVLIIHGKGRDDKSHANIVRSYVARWLTEFDDVQAYCTALPHHGGSGACYVALRKTAQAKQENWERHAKRSR endpoint_value="0.985 h"
sequence_record="MTHKATEILTGKVMQKSVLITGCSSGIGLESALELKRQGFHVLAGCRKPDDVERMNSMGFTGVLIDLDSPESVDRAADEVIALTDNCLYGIFNNAGFGMYGPLSTISRAQMEQQFSANFFGAHQLTMRLLPAMLPHGEGRIVMTSSVMGLISTPGRGAYAASKYALEAWSDALRMELRHSGIKVSLIEPGPIRTRFTDNVNQTQSDKPVENPGIAARFTLGPEAVVDKVRHAFISEKPKMRYPVTLVTWAVMVLKRLLPGRVMDKILQG [P0AFP4]" endpoint_value="3.07 h"
sequence_record="MFDSLAKAGKYLGQAAKLMIGMPDYDNYVEHMRVNHPDQTPMTYEEFFRERQDARYGGKGGARCC [P0AAS9]" endpoint_value="1.43 h"
sequence_record=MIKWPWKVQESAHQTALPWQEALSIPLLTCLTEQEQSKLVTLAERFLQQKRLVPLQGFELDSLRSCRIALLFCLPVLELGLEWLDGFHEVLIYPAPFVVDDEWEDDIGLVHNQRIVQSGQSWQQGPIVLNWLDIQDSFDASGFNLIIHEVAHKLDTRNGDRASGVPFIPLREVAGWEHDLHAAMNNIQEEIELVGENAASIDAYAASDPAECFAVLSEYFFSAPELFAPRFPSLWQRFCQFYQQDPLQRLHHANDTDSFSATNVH endpoint_value="1.16 h"
sequence_record="MILFVGFLLMEIVMPQISRTALVPYSAEQMYQLVNDVQSYPQFLPGCTGSRILESTPGQMTAAVDVSKAGISKTFTTRNQLTSNQSILMNLVDGPFKKLIGGWKFTPLSQEACRIEFHLDFEFTNKLIELAFGRVFKELAANMVQAFTVRAKEVYSAR [P0AGL5]" endpoint_value="0.306 h"
sequence_record="MAMHLNENLDDNGEMHDINVTPFIDVMLVLLIIFMVAAPLATVDVKVNLPASTSTPQPRPEKPVYLSVKADNSMFIGNDPVTDETMITALNALTEGKKDTTIFFRADKTVDYETLMKVMDTLHQAGYLKIGLVGEETAKAK [P0ABV2]" endpoint_value="1.34 h"
sequence_record="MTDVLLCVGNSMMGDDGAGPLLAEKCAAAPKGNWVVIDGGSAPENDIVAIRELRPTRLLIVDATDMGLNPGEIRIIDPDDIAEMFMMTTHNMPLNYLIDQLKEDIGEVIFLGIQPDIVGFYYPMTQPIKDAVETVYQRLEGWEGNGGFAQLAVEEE [P0AEV9]" endpoint_value="3.29 h"
sequence_record=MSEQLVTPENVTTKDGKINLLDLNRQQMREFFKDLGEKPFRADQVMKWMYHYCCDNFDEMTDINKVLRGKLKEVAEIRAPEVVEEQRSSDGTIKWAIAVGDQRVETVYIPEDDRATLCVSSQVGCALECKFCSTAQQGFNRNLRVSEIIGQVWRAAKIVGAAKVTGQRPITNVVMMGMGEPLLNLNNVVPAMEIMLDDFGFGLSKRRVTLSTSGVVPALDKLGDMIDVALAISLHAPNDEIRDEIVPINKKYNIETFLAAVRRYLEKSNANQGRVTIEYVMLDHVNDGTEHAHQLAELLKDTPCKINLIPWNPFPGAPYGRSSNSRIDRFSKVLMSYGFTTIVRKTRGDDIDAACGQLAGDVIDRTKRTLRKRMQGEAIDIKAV endpoint_value="1.35 h"
sequence_record="MNYSLKQLKVFVTVAQEKSFSRAGERIGLSQSAVSHSVKELENHTGVRLLDRTTREVVLTDAGQQLALRLERLLDELNSTLRDTGRMGQQLSGKVRVAASQTISAHLIPQCIAESHRRYPDIQFVLHDRPQQWVMESIRQGDVDFGIVIDPGPVGDLQCEAILSEPFFLLCHRDSALAVEDYVPWQALQGAKLVLQDYASGSRPLIDAALARNGIQANIVQEIGHPATLFPMVAAGIGISILPALALPLPEGSPLVVKRITPVVERQLMLVRRKNRSLSTAAEALWDVVRDQGNALMAGREGDPLYQI [P0ACR7]" endpoint_value="2.84 h"
